PROTOCOL TEXT: yeast display, Sf9 membrane polyspecificity reagent, FACS + sequencing; frameworks hold sequencing errors
RESULT TYPE: polyreactivity (PSR sort gate)

These solved cases illustrate the format of a correct answer.
{"SEQUENCE TEXT": "QVQLVESGGGLVQAGGSLRLSCDASGRTFGRNAMGWYRQAPGERELGAVISRGGSTYYADSVKGRFTISRDNAKNTVYLQRNSLKPEDTAVYYCNADTVYTRTAPYDYWGQGTQVTVSS", "polyreactivity (PSR sort gate)": "low polyreactivity"}
{"SEQUENCE TEXT": "QVQLVESGGGLVQAGGSLRLSCAASGGTFTTNAMGWYRQAPGKERELVAAITSSGVRTYYADSVKGRFTISRDNAKNTVYLQMNSLKPEDTAVYYCNAVTRYVRLTDDDYWGQGTQVTVSS", "polyreactivity (PSR sort gate)": "high polyreactivity"}
{"SEQUENCE TEXT": "QVQLVESGGGLVQAGGSLRLSCAASGFTFGSNAMGWYRQAPGKERELVAAISSRGGRTYYADSVKGRFTISRDNAKNTVYLQMNSLKPEDTAVYYCNADATVAWREQEYEYWGQGTQVTVSS", "polyreactivity (PSR sort gate)": "high polyreactivity"}
{"SEQUENCE TEXT": "QVQLVESGGGLVQAGGSLRLSCAASGSILSYYVMGWYRQAPGKERELVAAITSDGSTNYADSVKGRFTISRDNAKNTVYLQMNSQKPEDTAVYYCAAVIAWYYGVQDVYYLGLYDYWGQGTQVTVSS", "polyreactivity (PSR sort gate)": "low polyreactivity"}

Now examine the next entry.
Ask: For the sequence `QVQLVESGGGLVQAGGSLRLSCAASGGIFYYNAMGWYRQAPGKERELLAAITFSGGGTYYADSVKGRFTISRDNAKNTVYFQMNSLKPEDTAVNYCAAKFYRYAWFLGYDYWGQGTQVTVSS` , what polyreactivity (PSR sort gate) is on record?
Reply: high polyreactivity
